Measured values drawn from PubChem BioAssay AID2060487 for this set.

Below, each of the compounds is paired with its reported viability, T/C value.
test system: 997537-175-T-J1-PDC complex spheroid viability; experiment: Anticancer human tumor 997537-175-T-J1-PDC patient-derived colon adenocarcinoma cell line growth inhibition [GQUAD]; details: second compound 3.16 µM; first compound 0.0316 µM; stronger effect = lower value
MEASUREMENT_LABEL: viability, T/C (%)

1) CC(C)n1c(=O)n(C)c2cnc3cc(F)c(-c4ccc(OCCCN5CCCCC5)nc4)cc3c21 + CN(C)c1ccc(Nc2c3ccc(NC(=O)CCN4CCCC4)cc3nc3cc(NC(=O)CCN4CCCC4)ccc23)cc1
74.3
2) O=c1[nH]cc(F)c(=O)[nH]1 + Cc1cnc(CNC(=O)c2c(=O)c3ccc(N4CCCN(C)CC4)nc3n3c2sc2ccccc23)cn1
78.4
3) CC(C)n1c(=O)n(C)c2cnc3cc(F)c(-c4ccc(OCCCN5CCCCC5)nc4)cc3c21 + Cc1[nH]c2ccc(F)cc2c1-c1nc2c3cccnc3c3ncccc3c2[nH]1
89.3
4) O=c1[nH]cc(F)c(=O)[nH]1 + Cc1[nH]c2ccc(F)cc2c1-c1nc2c3cccnc3c3ncccc3c2[nH]1
87.2
5) O=C(c1cc(Cc2n[nH]c(=O)c3ccccc23)ccc1F)N1CCN(C(=O)C2CC2)CC1 + Cc1[nH]c2ccc(F)cc2c1-c1nc2c3cccnc3c3ncccc3c2[nH]1
90.7

----------
Below, each of the molecules is paired with its reported viability, T/C value.
test system: 997537-175-T-J1-PDC complex spheroid viability; assay: Anticancer human tumor 997537-175-T-J1-PDC cell line growth inhibition [GQUAD]; settings: second compound 3.16 µM; first compound 0.0316 µM; stronger effect = lower value;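 further: spheroids exposed to the agents for 7 days; 100% = DMSO vehicle control viability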
MEASUREMENT_LABEL: viability, T/C (%)

1. Cn1ncnc1[C@H]1c2n[nH]c(=O)c3cc(F)cc(c23)N[C@@H]1c1ccc(F)cc1 + CN(C)c1ccc(Nc2c3ccc(NC(=O)CCN4CCCC4)cc3nc3cc(NC(=O)CCN4CCCC4)ccc23)cc1
91.3
2. O=C(NO)c1cnc(N2CCN(S(=O)(=O)c3ccc4ccccc4c3)CC2)nc1 + CN(C)c1ccc(Nc2c3ccc(NC(=O)CCN4CCCC4)cc3nc3cc(NC(=O)CCN4CCCC4)ccc23)cc1
63.6
3. CC(=O)O[C@H]1C(=O)[C@@]2(C)[C@H]([C@H](OC(=O)c3ccccc3)[C@]3(O)C[C@H](OC(=O)[C@H](O)[C@@H](NC(=O)c4ccccc4)c4ccccc4)C(C)=C1C3(C)C)[C@]1(OC(C)=O)CO[C@@H]1C[C@@H]2O + Cc1[nH]c2ccc(F)cc2c1-c1nc2c3cccnc3c3ncccc3c2[nH]1
83.7
4. C#Cc1c(F)ccc2cc(O)cc(-c3ncc4c(N5CC6CCC(C5)N6)nc(OCC56CCCN5CC(F)C6)nc4c3F)c12 (stereo not given) + Cc1cnc(CNC(=O)c2c(=O)c3ccc(N4CCCN(C)CC4)nc3n3c2sc2ccccc23)cn1
91.2
5. CC1COCCN1c1cc(-c2ccnn2C)c2ccnc(-c3ccn[nH]3)c2n1 (stereo not given) + Cc1[nH]c2ccc(F)cc2c1-c1nc2c3cccnc3c3ncccc3c2[nH]1
54.8

----------
Below, each of the molecules is paired with its reported viability, T/C value.
Test system: 997537-175-T-J1-PDC complex spheroid viability
Experiment: Anticancer human tumor 997537-175-T-J1-PDC cell line growth inhibition [GQUAD];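 further: spheroids exposed to the agents for 7 days; 100% = DMSO vehicle control viability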
Details: second compound 0.0316 µM; first compound 1 µM; stronger effect = lower value
Source text: DNA G-quadruplex Stabilizer Agents in Combinations in Complex Spheroids A high-throughput screen of multi-cell type tumor spheroids was designed to identify active combinations of DNA G-quadruplex stabilizer agents and targeted small molecules. […] Compounds. […] If the clinical Cmax for an agent had not been determined, the highest concentration tested was 10 microM. […]
MEASUREMENT_LABEL: viability, T/C (%)

1) C=CCn1c(=O)c2cnc(Nc3ccc(N4CCN(C)CC4)cc3)nc2n1-c1cccc(C(C)(C)O)n1 + Cc1[nH]c2ccc(F)cc2c1-c1nc2c3cccnc3c3ncccc3c2[nH]1
83.6
2) COc1ccc([C@@H](O)c2cc(-c3ncnc4cc(N5CCOCC5)ccc34)c(F)cc2Cl)nn1 + Cc1[nH]c2ccc(F)cc2c1-c1nc2c3cccnc3c3ncccc3c2[nH]1
80.4
3) CC(C)n1c(=O)n(C)c2cnc3cc(F)c(-c4ccc(OCCCN5CCCCC5)nc4)cc3c21 + Cc1cnc(CNC(=O)c2c(=O)c3ccc(N4CCCN(C)CC4)nc3n3c2sc2ccccc23)cn1
82.3
4) Cc1cccc(N(C)C(=O)C2C(O)CCN2c2nc(C)cc(C(F)(F)F)c2C#N)c1 (stereo not drawn) + Cc1[nH]c2ccc(F)cc2c1-c1nc2c3cccnc3c3ncccc3c2[nH]1
75.4
5) COc1ncnc(C2CC2)c1-c1ncc2cnn(Cc3ccc(-c4nc(C(F)(F)F)cn4C(C)C)cc3)c2n1 + CN(C)c1ccc(Nc2c3ccc(NC(=O)CCN4CCCC4)cc3nc3cc(NC(=O)CCN4CCCC4)ccc23)cc1
77.8
6) C#Cc1c(F)ccc2cc(O)cc(-c3ncc4c(N5CC6CCC(C5)N6)nc(OCC56CCCN5CC(F)C6)nc4c3F)c12 (stereo not drawn) + CN(C)c1ccc(Nc2c3ccc(NC(=O)CCN4CCCC4)cc3nc3cc(NC(=O)CCN4CCCC4)ccc23)cc1
91.1
7) C=CCn1c(=O)c2cnc(Nc3ccc(N4CCN(C)CC4)cc3)nc2n1-c1cccc(C(C)(C)O)n1 + CN(C)c1ccc(Nc2c3ccc(NC(=O)CCN4CCCC4)cc3nc3cc(NC(=O)CCN4CCCC4)ccc23)cc1
74.4
8) O=C(c1cc(Cc2n[nH]c(=O)c3ccccc23)ccc1F)N1CCN(C(=O)C2CC2)CC1 + Cc1[nH]c2ccc(F)cc2c1-c1nc2c3cccnc3c3ncccc3c2[nH]1
81.6
9) Nc1ccn(C2OC(CO)C(O)C2(F)F)c(=O)n1 (stereo not drawn) + Cc1[nH]c2ccc(F)cc2c1-c1nc2c3cccnc3c3ncccc3c2[nH]1
80.1
10) C#Cc1c(F)ccc2cc(O)cc(-c3ncc4c(N5CC6CCC(C5)N6)nc(OCC56CCCN5CC(F)C6)nc4c3F)c12 (stereo not drawn) + Cc1[nH]c2ccc(F)cc2c1-c1nc2c3cccnc3c3ncccc3c2[nH]1
71.1
11) Nc1ccn(C2OC(CO)C(O)C2(F)F)c(=O)n1 (stereo not drawn) + Cc1cnc(CNC(=O)c2c(=O)c3ccc(N4CCCN(C)CC4)nc3n3c2sc2ccccc23)cn1
66.6
12) CC1COCCN1c1cc(C2(O)CC3CCC(C2)O3)c2cnn(-c3ccn[nH]3)c2n1 (stereo not drawn) + Cc1cnc(CNC(=O)c2c(=O)c3ccc(N4CCCN(C)CC4)nc3n3c2sc2ccccc23)cn1
38.8
13) COc1cccc2c1C(=O)c1c(O)c3c(c(O)c1C2=O)CC(O)(C(=O)CO)CC3OC1CC(N)C(O)C(C)O1 (stereo not drawn) + Cc1cnc(CNC(=O)c2c(=O)c3ccc(N4CCCN(C)CC4)nc3n3c2sc2ccccc23)cn1
93.6
